This collection of values is drawn from the kinase profiling compilation of Christmann-Franck et al. (2016).

system tested: MAP3K10 (human)
experiment summary: radiometric filter-binding kinase assay, Kinase HotSpot
measurement conditions: compound 0.5 µM; ATP 10 µM
measured property: residual activity (%)
Please reply with the bare figure in % and do not write the unit itself.

**Q:** Field request: residual activity | item: CNc1cc2c(Nc3cccc(Br)c3)ncnc2cn1
**A:** 90.1

**Q:** State the recorded residual activity for this entry: c1ccc(-c2n[nH]c3c2oc2ccccc23)cc1
**A:** 91.4

###

residual activity values, listed per item
system tested: UniProtKB Q14012
Sequence (Q14012 whole entry, looked up): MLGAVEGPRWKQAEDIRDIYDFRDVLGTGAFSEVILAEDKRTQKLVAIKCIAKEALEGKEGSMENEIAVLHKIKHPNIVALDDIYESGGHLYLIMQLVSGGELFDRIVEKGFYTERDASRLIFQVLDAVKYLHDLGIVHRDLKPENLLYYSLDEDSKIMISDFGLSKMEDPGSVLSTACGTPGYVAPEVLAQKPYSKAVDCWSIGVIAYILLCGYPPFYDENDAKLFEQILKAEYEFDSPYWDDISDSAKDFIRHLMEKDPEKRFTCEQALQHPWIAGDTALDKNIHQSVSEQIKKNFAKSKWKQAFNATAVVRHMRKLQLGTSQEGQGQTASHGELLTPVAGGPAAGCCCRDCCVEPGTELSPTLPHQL
experiment summary: radiometric filter-binding kinase assay, Kinase HotSpot
measurement conditions: compound 0.5 µM; ATP 10 µM
Write it as a number; the unit % goes unstated.

# smiles data, system tested, readout value
measured = [
    ("Nc1ncnc2c1c(-c1ccc(Oc3ccccc3)cc1)cn2C1CCCC1", "UniProtKB Q14012", 100),
    ("O=C1Nc2ccc(Cl)cc2/C1=C/c1cc(Cl)c(O)c(Cl)c1", "UniProtKB Q14012", 94.9),
    ("Cc1[nH]c(/C=C2\\C(=O)Nc3ccc(S(=O)(=O)N(C)c4cccc(Cl)c4)cc32)c(C)c1C(=O)N1CCN(C)CC1", "UniProtKB Q14012", 95.8),
    ("CCN(CC)CCNC(=O)c1c(C)[nH]c(/C=C2\\C(=O)Nc3ccc(Cl)cc32)c1C", "UniProtKB Q14012", 75.9),
    ("COc1ccc2c(c[n+](C)c3c4cc5c(cc4ccc23)OCO5)c1OC", "UniProtKB Q14012", 81.4),
]

**Q:** Value lookup for residual activity; key = CC[n+]1c(/C=C/N(C)c2ccccc2)n(-c2ccccc2)c2ccc(-c3nc4ccccc4s3)cc21
**A:** 94.4

**Q:** // returns reported residual activity for input O=C1NC(=O)/C(=C/c2ccc3c(c2)OC(F)(F)O3)S1
**A:** 89.9

**Q:** Entry CCN(CC)CCNC(=O)c1c(C)[nH]c(/C=C2\C(=O)Nc3ccc(F)cc32)c1C : reported residual activity = ?
**A:** 75.2

**Q:** I would be grateful if you could share the reported residual activity for c1ccc(-c2n[nH]cc2-c2ccnc3ccccc23)nc1 .
**A:** 96.1

**Q:** Quick one: residual activity for Cc1ccc(S(=O)(=O)/C=C/C#N)cc1 ?
**A:** 98.8

**Q:** Can you share its residual activity? I mean this compound: O=S(=O)(c1cccc2cnccc12)N1CCCNCC1
**A:** 99.4

**Q:** Item under review: COc1cc2ncnc(Nc3cccc(Cl)c3)c2cc1OC . Reported residual activity?
**A:** 99.2

**Q:** Field request: residual activity | item: CNc1cc2c(Nc3cccc(Br)c3)ncnc2cn1
**A:** 92.3

**Q:** Looking for the measured residual activity of CC(C)N(CCC(=O)c1ccc2ccccc2c1)Cc1ccccc1 , can you help?
**A:** 104
